Catalogue of molecules with associated Ratio Ki
Species on record: Homo sapiens
Protocol Text: Selectivity index, ratio of Ki for recombinant PKCalpha (unknown origin) in presence of nuclear membrane mimetic lipid mixture to Ki for recombinant PKCepsilon (unknown origin) in presence of nuclear membrane mimetic lipid mixture
Assay type: cell membranes

Molecule	Ratio Ki
CCCCCCCCC#CCCCCCCCC(=O)OCC1(CO)C/C(=C/CC(C)C)C(=O)O1 (centres undefined)	1.1
CCCCCCCCC#CCCCCCCCC(=O)OCC1(CO)C/C(=C\CC(C)C)C(=O)O1 (centres undefined)	4.8
CC(C)C/C=C1/CC(CO)(COC(=O)CC(CC(C)C)CC(C)C)OC1=O (centres undefined)	3.6
CC(C)C/C=C1\CC(CO)(COC(=O)CC(CC(C)C)CC(C)C)OC1=O (centres undefined)	5.1
CCCCCCCCCCCCCCCCCC(=O)OCC1(CO)C/C(=C\CC(C)C)C(=O)O1 (centres undefined)	2.1
CCCCCC=CCC=CCCCCCCCC(=O)OCC1(CO)C/C(=C\CC(C)C)C(=O)O1 (centres undefined)	1.9
CCCCCC1OC1CC1OC1CCCCCCCC(=O)OCC1(CO)C/C(=C/CC(C)C)C(=O)O1 (centres undefined)	1.6
CCCCCC1CC1CC1CC1CCCCCCCC(=O)OCC1(CO)C/C(=C/CC(C)C)C(=O)O1 (centres undefined)	1.4
CCCCC/C=C\C/C=C\CCCCCCC/C=C1\CC(CO)(COC(=O)C(C)(C)C)OC1=O (centres undefined)	4.9
CCCCCCC#CC#CCCCCCCCC(=O)OCC1(CO)C/C(=C\CC(C)C)C(=O)O1 (centres undefined)	4.8
CCCCCC=CCC=CCCCCCCCC(=O)OCC1(CO)C/C(=C/CC(C)C)C(=O)O1 (centres undefined)	1.3
CCCCC/C=C\C/C=C\CCCCCCC/C=C1/CC(CO)(COC(=O)C(C)(C)C)OC1=O (centres undefined)	3.2
CCCCCCC#CC#CCCCCCCCC(=O)OCC1(CO)C/C(=C/CC(C)C)C(=O)O1 (centres undefined)	1.1
CCCCCCCCCCCCCCCCCC(=O)OCC1(CO)C/C(=C/CC(C)C)C(=O)O1 (centres undefined)	3.1
